Measurement target: human CB1 receptor (hCB1) (Homo sapiens, UniProt P21554)
Sequence (P21554 whole entry): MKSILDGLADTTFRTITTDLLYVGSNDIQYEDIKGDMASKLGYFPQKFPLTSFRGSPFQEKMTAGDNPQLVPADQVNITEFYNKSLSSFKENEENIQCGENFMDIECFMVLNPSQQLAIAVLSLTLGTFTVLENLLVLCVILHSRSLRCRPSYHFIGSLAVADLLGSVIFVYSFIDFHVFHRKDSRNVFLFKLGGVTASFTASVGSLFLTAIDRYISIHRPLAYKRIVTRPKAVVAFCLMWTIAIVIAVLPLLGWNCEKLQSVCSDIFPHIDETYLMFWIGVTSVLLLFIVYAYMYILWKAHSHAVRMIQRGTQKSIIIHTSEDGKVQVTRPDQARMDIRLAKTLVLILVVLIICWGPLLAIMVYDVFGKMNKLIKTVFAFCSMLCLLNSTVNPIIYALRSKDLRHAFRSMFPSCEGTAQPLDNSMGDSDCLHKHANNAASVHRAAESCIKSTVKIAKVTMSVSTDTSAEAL
Procedure details: cell-based
Format: cell-based
Run parameters: agonist or inverse agonist at hCB1
Value kind: +/− HCB1

# count of solved cases: 5
                                   compound  reported_result
0  CNC(=O)[C@@H](NC(=O)c1nc(C2CC2)n2c1CN(C)CC2)C(C)(C)C                +
1  CN1CCCn2c(-c3cc(Cl)c(F)cc3F)nc(C(=O)N[C@@H](CC(C)(C)C)C(N)=O)c2C1                +
2  CN1CCCn2c(-c3cc(F)c(F)cc3F)nc(C(=O)N[C@H](C(N)=O)C(C)(C)C)c2C1                +
3  CC(C)C[C@H](NC(=O)c1nc(-c2cc(Cl)c(F)cc2F)n2c1CN(C)CCC2)C(N)=O                +
4  CNC(=O)[C@H](CC(C)(C)C)NC(=O)c1nc(-c2cc(F)c(F)cc2F)n2c1CN(C)CCC2                +

Item: `CN1CCCn2c(-c3ccc(Cl)cc3F)nc(C(=O)N[C@H](C(=O)N(C)C)C(C)(C)C)c2C1` | +/− HCB1: +

Item: CNC(=O)[C@@H](NC(=O)c1nc(C(C)C(F)(F)F)n2c1CN(C)CCC2)C(C)(C)C (stereo partly drawn) | +/− HCB1: +

Item: `CN1CCCn2c(-c3ccc(Cl)c(F)c3)nc(C(=O)N[C@H](C(=O)N(C)C)C(C)(C)C)c2C1` | +/− HCB1: +

Item: CNC(=O)[C@@H](NC(=O)c1nc(C2=CCC(C(C)(C)C)CC2)n2c1CN(C)CC2)C(C)(C)C (stereo partly drawn) | +/− HCB1: +

Item: `CN1CCCn2c(-c3cc(Cl)ccc3F)nc(C(=O)N[C@H](C(=O)N(C)C)C(C)(C)C)c2C1` | +/− HCB1: +

Item: `CC(C)C[C@H](NC(=O)c1nc(-c2ccc(F)cc2F)n2c1CN(C)CCC2)C(N)=O` | +/− HCB1: +

Item: `CNC(=O)[C@@H](NC(=O)c1nc(C(C)=C(C)C)n2c1CN(C)CCC2)C(C)(C)C` | +/− HCB1: +

Item: `CN1CCCn2c(-c3cc(F)ccc3F)nc(C(=O)N[C@@H](CC(C)(C)C)C(N)=O)c2C1` | +/− HCB1: +

Item: `CNC(=O)[C@@H](NC(=O)c1nc(C2CCCCCC2)n2c1CN(C)CCC2)C(C)(C)C` | +/− HCB1: +

Item: `CNC(=O)[C@@H](NC(=O)c1nc(-c2ccccc2)n2c1CN(c1cccc(Cl)n1)CC2)C(C)(C)C` | +/− HCB1: +
